System: replication-induced senescent mouse newborn dermal fibroblasts (NBF)
TEST_PROTOCOL: relative cell viability of senescent cells (fraction); higher = less killing of senescent cells
MEASUREMENT_SETUP: 1 µM; 3 days
Counter-ions that a name gives are not always drawn.
Binned relative cell viability; ranges: low bracket = under 0.9, middle bracket = from 0.9 up to 1, high bracket = 1 and over

INSERT INTO measurements (compound, system_name, answer_label) VALUES
  ('CN1c2ccccc2C(NCCCCCCC(=O)O)c2ccc(Cl)cc2S1(=O)=O (centres undefined) [Tianeptine sodium]', 'replication-induced senescent mouse newborn dermal fibroblasts (NBF)', 'middle bracket'),
  ('C[C@]12Cc3c[nH]nc3C[C@@H]1CC[C@@H]1[C@@H]2CC[C@@]2(C)[C@H]1CC[C@]2(C)O [Stanozolol]', 'replication-induced senescent mouse newborn dermal fibroblasts (NBF)', 'low bracket'),
  ('C=C1C[C@@H]2[C@H](CC[C@]3(C)C(=O)CC[C@@H]23)[C@@]2(C)C=CC(=O)C=C12 [Exemestane]', 'replication-induced senescent mouse newborn dermal fibroblasts (NBF)', 'high bracket'),
  ('C[C@]12CC[C@H]3[C@@H](CC[C@@]45O[C@@H]4C(O)=C(C#N)C[C@]35C)[C@@H]1CC[C@@H]2O [Trilostane]', 'replication-induced senescent mouse newborn dermal fibroblasts (NBF)', 'low bracket'),
  ('CN(C)C(=O)Oc1ccc[n+](C)c1 [Pyridostigmine Bromide]', 'replication-induced senescent mouse newborn dermal fibroblasts (NBF)', 'high bracket'),
  ('COc1ccc(C(CN(C)C)C2(O)CCCCC2)cc1 (centres undefined) [Venlafaxine HCl]', 'replication-induced senescent mouse newborn dermal fibroblasts (NBF)', 'high bracket');

* * *

Test system: replication-induced senescent mouse newborn dermal fibroblasts (NBF)
TEST_PROTOCOL: relative cell viability of senescent cells (fraction); higher = less killing of senescent cells
MEASUREMENT_SETUP: 1 µM; 3 days
Where a name gives a salt, the structure may show the parent alone.
MEASUREMENT_TYPE: relative cell viability

INSERT INTO assay_data (compound, measurement_type, observed_result) VALUES
  ('CCC1(c2ccc(N)cc2)CCC(=O)NC1=O (stereo not drawn) [Aminoglutethimide]', 'relative cell viability', 0.889),
  ('Cn1c(CCCC(=O)O)nc2cc(N(CCCl)CCCl)ccc21 [Bendamustine HCl]', 'relative cell viability', 0.999),
  ('CN(C)[C@@H]1C(=O)C(C(N)=O)=C(O)[C@@]2(O)C(=O)C3=C(O)c4c(O)cccc4[C@@](C)(O)[C@H]3[C@H](O)[C@@H]12', 'relative cell viability', 1.01);

Source listed as the supplement of paper PMC7184167.
